The entries below are paired with their reported LC50.
# assay.remarks: Toxicity in CD-1 mouse infected with Trypanosoma cruzi Y MHOM/MX/1994/INC5 from blood stream trypomastigotes assessed as reduction in parasite growth by measuring lethal concentration
# condition.details: in vivo, 24 h
metric.name: LC50 (µM)

> print(dat)
                           entry.smiles  metric.name  unit.info  experimental.result
1             c1ccc(CSc2nc3ccccc3s2)cc1         LC50         µM                  336
2  Fc1c(F)c(F)c(CSc2nc3ccccc3s2)c(F)c1F         LC50         µM                  185
3           Fc1cccc(F)c1CSc1nc2ccccc2s1         LC50         µM                  260
